target: CYP17 (human testicular microsome) (Homo sapiens); construct: using microsomal fraction from human testis (Celsis Cat #S00110) as the enzyme source; tissue Celsis S00110; host or cells: human testis microsomal fraction; assay: CYP17 enzymatic assay (% inhibition at 1 nM) (Biological Example 12); assay type: biochemical; conditions: test compound at 1 nM, read-out: CYP17 enzymatic assay percent inhibition at 1 nM (Biological Example No. 12)
Sequence (P05093 whole entry): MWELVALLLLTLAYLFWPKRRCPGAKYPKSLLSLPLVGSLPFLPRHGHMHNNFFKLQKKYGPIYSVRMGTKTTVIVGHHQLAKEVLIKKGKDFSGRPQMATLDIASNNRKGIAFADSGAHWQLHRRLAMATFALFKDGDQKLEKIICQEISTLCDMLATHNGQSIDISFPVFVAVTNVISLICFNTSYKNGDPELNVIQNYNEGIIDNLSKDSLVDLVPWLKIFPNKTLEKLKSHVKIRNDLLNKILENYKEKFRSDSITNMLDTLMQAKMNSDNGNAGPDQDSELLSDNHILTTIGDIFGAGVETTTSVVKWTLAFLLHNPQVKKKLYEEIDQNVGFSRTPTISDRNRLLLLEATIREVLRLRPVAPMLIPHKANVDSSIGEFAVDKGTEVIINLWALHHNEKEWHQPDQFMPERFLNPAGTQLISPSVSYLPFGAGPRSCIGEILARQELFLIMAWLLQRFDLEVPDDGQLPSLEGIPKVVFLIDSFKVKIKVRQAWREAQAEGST
Listing of recorded inhibition at 0.001 µM by entry.

Worked set:
For Cc1ccncc1C1=CC[C@H]2[C@@H]3CC[C@H]4CNC(=O)CC[C@]4(C)[C@H]3CC[C@]12C , write its inhibition at 0.001 µM.
10 to 50%

For C[C@]1(O)CC[C@@]2(C)C(=CCC3C2CC[C@]2(C)C(c4cncc(F)c4)=CCC32)C1 (stereo partly drawn) , write its inhibition at 0.001 µM.
10 to 50%

For CC(C)(C)C(=O)N[C@@H]1CC[C@@]2(C)C(CCC3C2CC[C@]2(C)C(c4cccnc4)=CCC32)C1 (stereo partly drawn) , write its inhibition at 0.001 µM.
10 to 50%

For C[C@]12CC(F)(F)CC1CCC1C2CC[C@]2(C)C(c3cccnc3)=CCC12 (stereo partly drawn) , write its inhibition at 0.001 µM.
10 to 50%

For CCC(=O)O[C@H]1CC[C@@]2(C)C(=CCC3C4=CC=C(c5cccnc5)[C@@]4(C)CCC32)C1 (stereo partly drawn) , write its inhibition at 0.001 µM.
10 to 50%

For CC1(O)CC2CC[C@@H]3[C@H](CC[C@]4(C)C(c5cccnc5)=CC[C@@H]34)[C@@]2(C)C1 (stereo partly drawn) , write its inhibition at 0.001 µM.
10 to 50%

For C[C@]1(O)CC[C@@]2(C)C(=CCC3C2CC[C@]2(C)C(c4cccnc4)=CCC32)C1 (stereo partly drawn) , write its inhibition at 0.001 µM.
> 50%

For CCc1ccncc1C1=CC=C2C3CCC4CC(=O)CC[C@]4(C)C3CC[C@]12C (stereo partly drawn) , write its inhibition at 0.001 µM.
10 to 50%

***
For Cc1ccncc1C1=CC=C2C3CCC4C[C@@H](O)CC[C@]4(C)C3CC[C@]12C (stereo partly drawn) , write its inhibition at 0.001 µM.
10 to 50%

For CC1C[C@H]2C3=CC=C(c4cccnc4)[C@@]3(C)CC[C@@H]2[C@@]2(C)C=CC(=O)C=C12 (stereo partly drawn) , write its inhibition at 0.001 µM.
> 50%

For CCc1ccncc1C1=CC=C2C3CCC4C[C@@H](OC(C)=O)CC[C@]4(C)C3CC[C@]12C (stereo partly drawn) , write its inhibition at 0.001 µM.
10 to 50%

For C[C@@]1(O)CC[C@@]2(C)C(=CCC3C2CC[C@]2(C)C(c4cncc(F)c4)=CCC32)C1 (stereo partly drawn) , write its inhibition at 0.001 µM.
> 50%

###

test: Human liver microsome stability assay (Biological Example 8b); conditions: liver microsomes, pH 7.4
Listing of recorded half-life at 1 μM by entry.

Worked set:
For C[C@]12CCNC(=O)C=C1C1(CC1)CC1C2CC[C@]2(C)C(c3cccnc3)=CCC12 (stereo partly shown) , write its half-life at 1 μM.
1 to 50 min

For C[C@]12CCC(=O)C=C1C1CC1[C@@H]1[C@@H]2CC[C@]2(C)C(c3cncc(F)c3)=CC[C@@H]12 (stereo partly shown) , write its half-life at 1 μM.
1 to 50 min

For C[C@]12CCC(NC(=O)C3CCC3)CC1=CCC1C2CC[C@]2(C)C(n3ccnc3)=CCC12 (stereo partly shown) , write its half-life at 1 μM.
1 to 50 min

For C[C@]12CC(=O)C[C@@H]1CC[C@@H]1[C@@H]2CC[C@]2(C)C(n3ccnc3)=CC[C@@H]12 , write its half-life at 1 μM.
> 50 min

For CC1C[C@@H]2[C@H](CC[C@]3(C)C(c4cccnc4)=CC[C@@H]23)[C@@]2(C)CCC(=O)C=C12 (stereo partly shown) , write its half-life at 1 μM.
1 to 50 min

***
For CC(C)C(=O)N[C@@H]1CC[C@@]2(C)C(CCC3C2CC[C@]2(C)C(c4cccnc4)=CCC32)C1 (stereo partly shown) , write its half-life at 1 μM.
1 to 50 min

For C[C@]12CC[C@H]3[C@@H](CC4CC45C[C@@H](O)CC[C@]35C)[C@@H]1CC=C2c1cccnc1 (single isomer, unassigned) , write its half-life at 1 μM.
1 to 50 min

For CC(=O)N[C@@H]1CC[C@@]2(C)C(CCC3C2CC[C@]2(C)C(c4cnccc4C)=CCC32)C1 (stereo partly shown) , write its half-life at 1 μM.
1 to 50 min

For C[C@]12CC[C@H](O)CC1=CCC1C2CC[C@]2(C)C(c3cncc(N)c3)=CCC12 (stereo partly shown) , write its half-life at 1 μM.
> 50 min

For C[C@]12CCC3C(CC(O)C45CC4CC[C@]35C)C1=CC=C2c1cccnc1 (stereo partly shown) , write its half-life at 1 μM.
1 to 50 min

For COc1cncc(C2=CCC3C4CC=C5N(C)C(=O)CCC[C@]5(C)C4CC[C@]23C)c1 (stereo partly shown) , write its half-life at 1 μM.
1 to 50 min

For CON=C1C=C2CCC3C4=CC=C(c5cccnc5)[C@@]4(C)CCC3[C@@]2(C)CC1 (stereo partly shown) , write its half-life at 1 μM.
> 50 min

For C[C@]12CC[C@H]3[C@@H](CCC4=CC(=O)C=C[C@@]43C)C1=CC=C2c1cccnc1 , write its half-life at 1 μM.
1 to 50 min
